method: Screening PK in mice, 30 mg/kg po
Assay type: in vivo
runConditions: mouse, plasma, 30 mg/kg po, 2 h
parameter: Cmax (ng/mL)
Use ng/mL as the unit, but write only the number.

What does the record list as Cmax for `Cc1nc(Nc2ncc(C(=O)Nc3c(C)cccc3Cl)s2)cc(N2CCN(CCO)CC2)n1` ?
550

---

method: in vitro
runConditions: dog, MDCK
parameter: Papp A→B (×10⁻⁶ cm/s)
Use ×10⁻⁶ cm/s as the unit, but write only the number.

What does the record list as Papp A→B for `Cc1nc(Nc2ncc(C(=O)Nc3c(CF)csc3Cl)s2)cc(N2CCN(C)CC2)n1` ?
10
